B1: RHOBTB3 (parent)
chain: GGADIIVIKYNVNDKFSFHEVKDN

# Variants of: B1
# Assay Method Text: protein stability index of a GFP-peptide fusion (GPS, HEK-293T) (PSI 1-6); higher = more stable;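 further: lentivirally expressed fusions sorted by FACS into six bins by GFP to DsRed ratio, PSI derived from sequencing read proportions per bin multiplied by bin number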
# Particulars: c terminus: a fixed tail appended
Class boundaries, taken from values of protein stability index, are as follows: bin 1 (below 2), bin 2 (2 to below 3), bin 3 (3 or more)

> print(dat)
    mutant.label  label.value
 1          F18N        bin 1
 2          V21K        bin 2
 3          V21H        bin 2
 4           D4M        bin 3
 5          F18C        bin 3
 6          V12N        bin 2
 7           V7A        bin 2
 8           V7D        bin 3
 9          E20F        bin 2
10          D14V        bin 3
11           G1C        bin 2
12          F18A        bin 3
13           I6V        bin 1
14          V12K        bin 1
15          Y10T        bin 1
16          D14N        bin 3
17          Y10C        bin 3
18           G2M        bin 3
19           I8H        bin 3
20          V21A        bin 3
